Reference for the values: patent US20150132307A1

# tgt: T1, Human recombinant soluble TWEAK (Example 6) (human, UniProt O43508 99-249, limits assumed)
# T1 sequence: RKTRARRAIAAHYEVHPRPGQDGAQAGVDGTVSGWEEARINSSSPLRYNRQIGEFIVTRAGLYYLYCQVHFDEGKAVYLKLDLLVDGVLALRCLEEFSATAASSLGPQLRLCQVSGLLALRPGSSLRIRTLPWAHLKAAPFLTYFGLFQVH
# measurement description: cell-based or functional assay
quantity kind: Inhibition of IL-8 Secretion IC50 [ng/ml] (A375 cells) (ng/mL)
The reply should contain only the number, in ng/mL.

Request: What Inhibition of IL-8 Secretion IC50 [ng/ml] (A375 cells) value was documented for this binder, <TWEAK> 301chi (antibody, human IgG1, kappa, V domains shown) VH: QSLEESGGGLVKPGASLTLTCTASGFTFNANYWICWVRQAPGKGLEWIACIYGGGNSGAYYASWATGRFTISRTSSTTVTLQMTSLTAADTATYFCARGPISRDLWGPGTLVTVSL VL: DVVMTQTPASVSEPVGGTVTIKCQASQSIYSSLAWYQQKPGQPPKLLIYDAFDLASGVSSRFTGSGSGTQFTLTISDLECADAATYYCQSTDYGNSWDGNPFGGGTEVVVTR ?
Result: 121

Request: I am curious: what Inhibition of IL-8 Secretion IC50 [ng/ml] (A375 cells) value has been reported for <TWEAK> 305 (rabbit) (antibody, V domains shown, Rabbit parent antibody) VH: QEQLVESGGGLVQPGGSLTLSCKASGFDFSTYYMSWVRQAPGKGLEWIGTVYVRQGTTYYASWLNGRFTISSDNAQNTVDLKMNSLTAADTATYFCAKGGYNYDDAFVIWGPGTLVTVSF VL: AIEMTQTPFSVSAAVGGTVTINCQASQNIYSNLAWYQQKPGQPPKLLMYTASYLASGVPSRFKGSGSRTEYTLTISGVQCADAATYYCQTAYYNSRPDTVAFGGGTEVVVK ?
Result: 99

Request: // lookup Inhibition of IL-8 Secretion IC50 [ng/ml] (A375 cells) for <TWEAK> 304chi (antibody, human IgG1, kappa, V domains shown, Chimer: rabbit variable domains with human kappa and human IgG1 constant regions) VH: QSLEESGGDLVKPGASLTLTCKASGFSFSSTYYMCWVRQAPGKGLEWIGCIYVGSSGAPYYASWAKGRFTISKTSSTTVALQMTSLTPADTATYVCTRSVHFGDLWGPGTLVTVSS VL: DVVMTQTPSPVSAAVGGTVTIKCQASQSIGNDLSWYQQKPGQRPKLLIYSVSTLASGVPSRFKGSGSGTEYSLTISDVQCADAATYYCQCIDYGNNYVGNTFGGGTEVVVKR
Result: 122

Request: Bench note: what Inhibition of IL-8 Secretion IC50 [ng/ml] (A375 cells) did <TWEAK> 305chi (antibody, human IgG1, kappa, V domains shown, Chimer: rabbit variable domains with human kappa and human IgG1 constant regions) VH: QEQLVESGGGLVQPGGSLTLSCKASGFDFSTYYMSWVRQAPGKGLEWIGTVYVRQGTTYYASWLNGRFTISSDNAQNTVDLKMNSLTAADTATYFCAKGGYNYDDAFVIWGPGTLVTVSF VL: AIEMTQTPFSVSAAVGGTVTINCQASQNIYSNLAWYQQKPGQPPKLLMYTASYLASGVPSRFKGSGSRTEYTLTISGVQCADAATYYCQTAYYNSRPDTVAFGGGTEVVVKR show?
Result: 104

Request: State the recorded Inhibition of IL-8 Secretion IC50 [ng/ml] (A375 cells) for this entry: <TWEAK> 301 (rabbit) (antibody, V domains shown, Rabbit parent antibody; purified antibody or hybridoma supernatant was used) VH: QSLEESGGGLVKPGASLTLTCTASGFTFNANYWICWVRQAPGKGLEWIACIYGGGNSGAYYASWATGRFTISRTSSTTVTLQMTSLTAADTATYFCARGPISRDLWGPGTLVTVSL VL: DVVMTQTPASVSEPVGGTVTIKCQASQSIYSSLAWYQQKPGQPPKLLIYDAFDLASGVSSRFTGSGSGTQFTLTISDLECADAATYYCQSTDYGNSWDGNPFGGGTEVVVT
Result: 128

Request: Recorded Inhibition of IL-8 Secretion IC50 [ng/ml] (A375 cells) for <TWEAK> 304 (rabbit) (antibody, V domains shown, Rabbit parent antibody) VH: QSLEESGGDLVKPGASLTLTCKASGFSFSSTYYMCWVRQAPGKGLEWIGCIYVGSSGAPYYASWAKGRFTISKTSSTTVALQMTSLTPADTATYVCTRSVHFGDLWGPGTLVTVSS VL: DVVMTQTPSPVSAAVGGTVTIKCQASQSIGNDLSWYQQKPGQRPKLLIYSVSTLASGVPSRFKGSGSGTEYSLTISDVQCADAATYYCQCIDYGNNYVGNTFGGGTEVVVK , please?
Result: 109
